Each recorded value in this set is attributed to PubChem BioAssay (NCI).

Tested on: SF-295 CNS
Assay: NCI tumour cell line growth inhibition, 48 h; in the data active = GI50 below about 0.43 µM; inactive = the rest
Please state which outcome applies, choosing from active, inactive

In: Recorded call for CCCNC(=O)c1ccc(Cl)cc1Cl ?
Out: inactive

In: Check the results log: what was the call for COc1cc(C2C3=C(COC3=O)Nc3c2ccc2c3CCCC2)cc2c1OCO2 (centres undefined) ?
Out: active

In: Assay outcome for NCCOc1ccccc1/C=C1\c2ccccc2-c2ccc([N+](=O)[O-])cc21 : what was it?
Out: inactive

In: Which outcome was entered for the molecule CN1CCN(Cc2ccc(NC(=O)c3cncc(C#Cc4cncc5nccnc45)c3)cc2C(F)(F)F)CC1 in this test?
Out: inactive

In: # outcome recorded in this test, key = Cc1[nH]nc2c1N=C(c1ccccc1F)c1cc(C(N)=O)ccc1N2
Out: inactive

In: Recorded test outcome, item CCCCC(=O)N/N=C/c1c(O)ccc2ccccc12
Out: inactive

In: Just curious, what result did C/C=C/[C@H]1O[C@@H]2C(=C[C@H]1O)C(=O)O[C@H]2C get here?
Out: inactive

In: I would be grateful if you could indicate the recorded call for Cc1ccc(C(SCC(N)C(=O)O)(c2ccccc2)c2ccccc2)cc1 (centres undefined) .
Out: active

In: Answer briefly: the call reported for C[n+]1c(-c2ccc(/C=N/NC(=O)c3ccc(C(=O)N/N=C/c4ccc(-c5cn6ccccc6[n+]5C)cc4)cc3)cc2)cn2ccccc21 in this assay.
Out: inactive

In: Query: recorded result category for COc1ccc2c(Cl)cc(NC(=O)Nc3c(C)cccc3C)nc2c1 in this test
Out: inactive

In: Returns: the outcome recorded for CCN(CC)CCN(Cc1ccc(F)cc1)c1ccc(CO)c(Cl)c1 in this assay.
Out: inactive

In: Given COC(=O)/C=C1/SC(N2N=C(c3cccs3)CC2c2ccc(F)cc2)=NC1=O (centres undefined) , state the outcome it received in this test.
Out: inactive

In: Entry CCCCc1n(Cc2ccc3ccccc3c2)cc[n+]1Cc1ccc2ccccc2c1 : call = ?
Out: inactive

In: Call for entry COc1ccc(/C=C2\CN(Cc3cn(CCNc4ccnc5cc(Cl)ccc45)nn3)C/C(=C\c3ccc(OC)c(OC)c3)C2=O)cc1OC :
Out: inactive

In: Returns: the outcome recorded for CCOC(=O)c1c(C)nc2c(c1N)CC(=O)N2CCc1ccccc1 in this assay.
Out: inactive

In: # lookup: test call for COc1cc2ncnc(Nc3ccc4c(cnn4Cc4ccccc4)c3)c2cc1OC
Out: inactive

In: // return assay outcome for COC1C(OC(=O)/C=C/C=C/C=C/C=C\C(=O)O)CCC2(CO2)C1C1(C)OC1CC=C(C)C (centres undefined)
Out: inactive

In: Call for entry COc1cc(-c2n/c(=C\c3c(O)[nH]c4cc(Cl)ccc34)cc3c2=Nc2ccccc2-3)cc(OC)c1OC :
Out: inactive

In: Check the results log: what was the call for O=C1C(=O)c2ccccc2C(O)=C1CCCc1ccc(C2CCCCCC2)cc1 ?
Out: inactive

###

Please provide measured TGI for the entries that follow.
Test system: DU-145 prostate
Assay: NCI tumour cell line growth inhibition, 48 h
Write the answer as a number in µM, unit excluded.

In: Give the observed TGI of CCOC(=O)c1c(C)nc2c(c1N)CC(=O)N2CCc1ccccc1 for DU-145 prostate.
Out: 16

In: Specify TGI for CC(C)(C)OC(=O)C1=C2C=C(O)C=CC2(C)N(Cc2ccccc2)C1=N (stereo not drawn) , system DU-145 prostate.
Out: 12.8

In: Write down the reported TGI (system: DU-145 prostate) of N#Cc1c(Cl)nc2ccccc2c1N=[N+]=[N-]
Out: 28.1

In: Enter TGI (test system DU-145 prostate) for C=CC/C(=C\COP(=O)(OCc1ccc([N+](=O)[O-])o1)N(C)CCCCCl)CC/C=C(\C)CCC=C(C)C (stereo not drawn)
Out: 23.8
